Target: T1, Recombinant Human PD-L1-TVMV-His (human, UniProt Q9NZQ7 19-239)
T1 construct: expressed in HEK293T cells; also called PD-L1-His; hPD-L1(19-239)-TVMV-His
T1 sequence (Q9NZQ7 other isoform, or with tags, fused parts or gaps limits assumed): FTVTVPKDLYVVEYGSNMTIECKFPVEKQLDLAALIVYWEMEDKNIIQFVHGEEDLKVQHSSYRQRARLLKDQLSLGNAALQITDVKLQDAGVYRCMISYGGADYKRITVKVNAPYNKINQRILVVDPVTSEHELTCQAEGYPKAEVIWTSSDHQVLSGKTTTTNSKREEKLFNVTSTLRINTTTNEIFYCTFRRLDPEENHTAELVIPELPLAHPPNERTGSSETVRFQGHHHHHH
Experiment: HTRF vs PD-1-Ig; C = IC50 0.0003-0.0099 µM
pIC50: −log10 of the molar value. Starred links: 1 amine or outer side, 2 acyl side, 3 side chain; linkers in the order of their positions; H or OH if unused. Positions of bridges follow the written chain, without caps; N, C: chain ends. Non-standard residues stand in square brackets, D forms with d. Groups on a side chain read outwards from the residue. No end group written: not given here. *: point of attachment. Trp(1-CH2CO) = O=C([C@H](Cc1cn(CC(=O)[*:3])c2ccccc12)N[*:1])[*:2]; C18 diacid = O=C(O)CCCCCCCCCCCCCCCCC(=O)*; γGlu = O=C(O)[C@H](CCC(=O)[*:2])N[*:1]; Hyp = O=C(O)[C@@H]1C[C@@H](O)CN1; NMeNle = CCCC[C@H](NC)C(=O)O; Pip = O=C(O)[C@@H]1CCCCN1; NMeA = CN[C@@H](C)C(=O)O; Pra = C#CC[C@H](N)C(=O)O; Dab = NCC[C@H](N)C(=O)O; Dap = NC[C@H](N)C(=O)O
Readings of pIC50 for the listed binders

Looking for the measured pIC50 of {CH2CO}-Y[NMeA]NP[Dap]L[Hyp]WSW[NMeNle][NMeNle]RCG[Pra] (thioether N-14; not fully specified (C-terminus); printed as ClAc-Tyr-mAla-Asn-Pro-Dap-Leu-Hyp-Trp-Ser-Trp-mNle-mNle-Arg-Cys-Gly-[(S)-propargylglycine], also called Intermediate 1400G) [INT-1400G] , can you help? 8.00 to 9.52

Looking for the measured pIC50 of {CH2CO}-Y[Pip]NP[Dap]L[Hyp]W[Dab][Trp(1-CH2CO)][NMeNle][NMeNle]LCG[Dap]([γGlu-C18 diacid]) (thioether N-14 (inferred)) [Example 13152] , can you help? 8.00 to 9.52

We next turn to a different binder, shown below.
Looking for the measured pIC50 of {CH2CO}-Y[NMeA]DPHK[Hyp]WKW[NMeNle][NMeNle]ECG[Pra] (thioether N-14; not fully specified (C-terminus); printed as ClAc-Tyr-mAla-Asp-Pro-His-Lys-Hyp-Trp-Lys-Trp-mNle-mNle-Glu-Cys-Gly-[(S)-propargylglycine], also called Intermediate 1400F) [INT-1400F] , can you help? 8.00 to 9.52
